Give measured GI50 for each item. Keep answers brief.
- Test system: OVCAR-5
- Procedure text: NCI tumour cell line growth inhibition, 48 h
Active and inactive are the calls of the source. Cut-off read from the data, not from the text of the source: active = GI50 up to about 1.1 µM and inactive = higher.

{"columns": ["Compound", "Meas value"],
 "data": [
  ["Cc1ccc([N+](=O)[O-])c2c(NCC(O)CO)ccnc12 (stereo not given)", "> 100 µM (inactive)"]
]}

For each of the compounds below, note its GI50.
1. OC(C1CCCCCCCCCC1)C(O)C1CCCCCCCCCC1 (stereo not given)
2. O=C(Nc1nc2ccc([N+](=O)[O-])cc2s1)C(=O)C(C(=O)c1ccccc1F)C1OC(=O)c2ccccc21 (stereo not given)
3. O=C(/C=C\Nc1ccccc1O)C(F)(F)F

1. > 100 µM (inactive)
2. 71 µM (inactive)
3. > 100 µM (inactive)
